Origin of the recorded values: PubChem BioAssay (NCI)

Test: NCI Yeast Anticancer Drug Screen. Data for the cln2 rad14 strain (AID 165);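 also: 0% = growth equal to vehicle treated cultures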
Details: S. cerevisiae cln2 rad14 strain, at 50.0 µM, stronger effect = higher value
Compounds without any hit were thinned out: in the full panel of roughly 79,000, 15% have a hit.

compound: O=C(O)CCC(=O)NNC(=O)CCC(=O)O
growth inhibition [%]: -8.45
//
compound: CN(C(=O)C1(C(=O)C=[N+]=[N-])CC1)c1ccccc1
growth inhibition [%]: 1.3
//
compound: O=C1c2ccccc2C(=O)N1Cc1ccccc1-c1c2nc(c(-c3ccccc3CN3C(=O)c4ccccc4C3=O)c3ccc([nH]3)c(-c3ccccc3CN3C(=O)c4ccccc4C3=O)c3nc(c(-c4ccccc4CN4C(=O)c5ccccc5C4=O)c4ccc1[nH]4)C=C3)C=C2
growth inhibition [%]: -3.4
//
compound: COc1ccc(/C=N/NC(=O)/C(C#N)=C/c2ccc(OC)cc2)cc1
growth inhibition [%]: -11.5
//
compound: CCCCCC#CC1OC1(C)C (configuration not stated)
growth inhibition [%]: -27
//
compound: Cc1cc2oc3c(c2c(=O)[nH]1)C(=O)c1ccccc1C3=O
growth inhibition [%]: -17.4
//
compound: CCC(C(O)C(C)C)[N+](=O)[O-] (configuration not stated)
growth inhibition [%]: -6.5
//
compound: COc1cc(C)oc(=O)c1
growth inhibition [%]: -16.6
//
compound: COc1ccc2nc3c([N+](=O)[O-])ccc(NCCCN(C)C)c3c(NCCCN(C)C)c2c1
growth inhibition [%]: 38.3
//
compound: O=C(O)c1cc(C(=O)O)cc(S(=O)(=O)NCCO)c1
growth inhibition [%]: -30.2
//
compound: CCOC(=O)C(CCCCS(=O)(=O)O)C(=O)OCC
growth inhibition [%]: -35
//
compound: CC1CN(N)C(=O)O1 (configuration not stated)
growth inhibition [%]: 2.9
//
compound: CN1C(C)(C)CC(O)(C(O)(c2ccccc2)c2ccccc2)CC1(C)C
growth inhibition [%]: -14
//
compound: O=C(COc1ccc(Cl)c(Cl)c1)NCc1cccc(NC(=O)CBr)c1
growth inhibition [%]: 99.5
//
compound: NC1=C(O)C(=O)C(c2ccc3c(c2)CCC3)O1 (configuration not stated)
growth inhibition [%]: -12.6
//
compound: NNC(=O)C1CCC(=O)N1S(=O)(=O)c1ccccc1 (configuration not stated)
growth inhibition [%]: 8.95
//
compound: CC1(C(Cl)(Cl)Cl)C=C/C(=N\O)C(Cl)=C1 (configuration not stated)
growth inhibition [%]: 4.95
//
compound: CC1CCC2(C)CCC3(C)C(=CCC4C5(C)CCC(O)C(C)(C)C5CCC43C)C2C1C (configuration not stated) (tested in a mixture with another compound)
growth inhibition [%]: -5.8
//
compound: CC(N)CCN (configuration not stated)
growth inhibition [%]: 10.8
//
compound: COc1cc(OC)c(C(=O)/C=C/c2ccccc2)c(O)c1OC
growth inhibition [%]: -45.2
//
compound: O=C1CC2(C(=O)N1CN1CCOCC1)c1ccccc1-c1ccccc12
growth inhibition [%]: 3.7
//
compound: O=C(CCC(=O)Nc1cc(Cl)ccc1Cl)CC(=O)c1ccc(Cl)cc1
growth inhibition [%]: 11

----------
# growth inhibition annotations
Assay: NCI Yeast Anticancer Drug Screen. Data for the cln2 rad14 strain (AID 165);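 also: 0% = growth equal to vehicle treated cultures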
Settings: S. cerevisiae cln2 rad14 strain, at 50.0 µM, stronger effect = higher value
The panel holds about 79,000 compounds, 15% with a hit somewhere; the sample as a whole holds those more often.
observable: growth inhibition (%)

compound: CCOC(=O)c1cnc2n(c1=O)[C@H]1CCCC[C@@H]1N2
measuredResult: 9.75

compound: O=C(CO)CC(=O)C(=O)Nc1ccccc1
measuredResult: 10.6

compound: ONc1ccccc1
measuredResult: 16.7

compound: COc1ccc(/C=N/Nc2ccc(S(=O)(=O)O)cc2)cc1
measuredResult: -6.45

compound: CNC(=O)N(CC1CCCCC1)c1nc2c(=O)n(C)c(=O)[nH]c2s1
measuredResult: -22.7

compound: COc1ccc2c(c1OC)C(=O)OC2(O)C1=NCCc2cc3c(cc21)OCO3 (configuration not stated)
measuredResult: 21.3

compound: CC1=CC(=O)N2CCN=C2S1
measuredResult: -20.6

compound: CCCC(NC(C)=O)C(=O)O (configuration not stated)
measuredResult: -21.1

compound: CC1(O)C=CC2CCC1C2O (configuration not stated)
measuredResult: 19.2

compound: O=C(NCCCNCCCCNCCCNC(=O)C(F)(F)F)C(F)(F)F
measuredResult: -8.45

compound: CC(C)(C)C(=O)/C(O)=C\c1ccccc1
measuredResult: -10.7

compound: O=C1C=C(NCCc2ccccc2)c2ccccc2C1=O
measuredResult: 9.15

compound: COc1ccccc1-n1nnc2c(N)nc(N)nc21
measuredResult: 4.05

compound: CC(=O)OC1C=CC2Oc3ccc(C)cc3C1(C)O2 (configuration not stated)
measuredResult: 28.2

compound: CN(C)c1ccccc1C1CCCCCC1O (configuration not stated)
measuredResult: 20.1

compound: CCC(=N\NC(=S)NC)/C(C)=N\NC(=S)NC
measuredResult: -36.1

compound: Nc1nc(N)c2nc(-c3ccc(N(CCO)CCO)cc3)c(N)nc2n1
measuredResult: -34.9

compound: CC(=O)OCC1C(=O)OCC1C(=O)N1Cc2cc3ccccc3nc2C1 (configuration not stated)
measuredResult: -18.9

compound: NC(CO)CSCc1ccccc1 (configuration not stated)
measuredResult: -4.4

compound: O=C1CCSC(=S)N1c1ccc(F)cc1
measuredResult: -32.5

compound: OC1CC2CCCCC2CC1Cl (configuration not stated)
measuredResult: -16.6

compound: CC(C)CC(O)(CC(C)C)C(CCC(=O)Nc1ccccc1)C(=O)Nc1ccccc1 (configuration not stated)
measuredResult: -52.1

compound: O=S1(=O)CCCC1C(O)c1ccccc1 (configuration not stated)
measuredResult: -60.2

compound: Cc1cc(N)ccc1[N+](=O)[O-]
measuredResult: -29.1

compound: O=c1[nH]c(Nc2ccc(F)c(Cl)c2)nc2nc[nH]c12
measuredResult: -4.75

compound: Cc1ccc(S(=O)(=O)NC(=O)C2(Br)S(=O)(=O)OCCOS2(=O)=O)cc1
measuredResult: -54.9

compound: COC(=O)/C=C1\C(=O)c2ccccc2-c2ccccc21
measuredResult: 20.3

compound: CCC(=O)Nc1ccc(F)cc1
measuredResult: -27.4

compound: Cc1ccc(OC/C=C/c2ccc(C#N)cc2)cc1
measuredResult: -17.6

compound: CC1=C(C(=O)CC(=O)C(=O)NC2C3CC4CC(C3)CC2C4)Sc2ccccc2N1 (configuration not stated)
measuredResult: 8.8

compound: O=[N+]([O-])c1ccc(N=CNc2ccc([N+](=O)[O-])cc2)cc1
measuredResult: -12

compound: O=[N+]([O-])c1cc(Br)c(F)cc1F
measuredResult: -32.2

compound: C=CCSC(C)=O
measuredResult: 7.6

compound: O=C(N/N=C\c1cccc(O)c1)c1ccncc1
measuredResult: -19.4

compound: N=c1oc2cc(O)ccc2cc1C(=O)NCc1ccccc1
measuredResult: 20.4

compound: O=C1c2cc3c(cc2CC12Cc1cc4c(cc1C2=O)CCCC4)CCCC3
measuredResult: -16.8

compound: OC1(Cc2ccccn2)CCCc2ccccc21 (configuration not stated)
measuredResult: -15.3

compound: COC(=O)C1(CC(=O)c2ccncc2)NC(=S)NC(=O)C1C#N (configuration not stated)
measuredResult: -22.4

compound: Cc1cc(N=[N+]=[N-])c2cc3c(cc2n1)OCO3
measuredResult: -39

compound: O=C(O)c1ccccc1SC(Sc1ccccc1C(=O)O)c1ccc2c(c1)OCO2
measuredResult: -11.6

compound: Cn1c(=O)c(-c2ccccc2)cc2ccccc21
measuredResult: -1.95

compound: O=C(O)c1ccc([N+](=O)[O-])c(P(=O)(O)O)c1
measuredResult: -42.8

compound: COC(=O)C(Cc1nc2ccccc2[nH]c1=O)C(NO)C(=O)Nc1c(Cl)cc([N+](=O)[O-])cc1Cl (configuration not stated)
measuredResult: 10.2

compound: c1ccc2c(c1)oc1cc3c(cc12)n1nnnc1c1cccn31
measuredResult: 16.4

compound: Cc1cc(Br)c[nH]c1=O
measuredResult: -20.2

compound: NN1CCOC1=O
measuredResult: -2.9

compound: Fc1ccc(C2SCc3nc4ccccc4n32)cc1F (configuration not stated)
measuredResult: 1.25

compound: CCOC(=O)Cc1cc(C)c2ccccc2n1
measuredResult: -19.6

compound: c1ccc(-c2nnc3nn4c(-c5ccccc5)cnnc4c3c2-c2ccccc2)cc1
measuredResult: 1.4

compound: Cc1cccc(N=Nc2ccc(N=Nc3c(O)ccc4ccccc34)cc2C)c1
measuredResult: 0.65

compound: CC(=O)Nc1ccc(Br)cc1C
measuredResult: -10.9

compound: CSC1(C)C(=O)Nc2cccc([N+](=O)[O-])c21 (configuration not stated)
measuredResult: -7.5

----------
Assay: NCI Yeast Anticancer Drug Screen. Data for the sgs1 mgt1 strain (AID 161);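 also: 0% = growth of cultures given vehicle only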
Conditions: S. cerevisiae sgs1 mgt1 strain, at 50.0 µM, stronger effect = higher value
Protocol: Growth inhibition of yeast strains with defined genetic alterations is measured as a screen for potential anti-cancer activity. Selected strains with alterations in DNA damage repair or cell cycle control were exposed to compounds and growth inhibition was measured relative to vehicle treated controls. The strain used in this assay is sgs1 mgt1
Compounds without any hit were thinned out: in the full panel of roughly 79,000, 15% have a hit.

compound: NC1=NN(c2ccccc2)C(=O)C1/C(=N\NC(=O)c1cc2ccccc2cc1O)C(=O)Nc1cccc(C(F)(F)F)c1 (stereo unspecified)
growth inhibition [%]: -33.5
--
compound: O=S1(=O)C(c2ccc(F)cc2)=C(O)c2cc3ccccc3nc21
growth inhibition [%]: 27
--
compound: COc1ccc2[nH]c(=O)oc(=O)c2c1
growth inhibition [%]: -7.5
--
compound: CC(=O)OC1C(=O)OCC23CCC(C)=CC2OC2CC(OC(=O)/C=C/C=C/C(=O)OCCC1C)C3(C)C21CO1 (stereo unspecified)
growth inhibition [%]: -31.3
--
compound: CC(=O)c1ccc2ccc3ccccc3c2c1
growth inhibition [%]: 18.6
--
compound: O=C(c1ccccc1)c1ccc(C(=O)c2ccccc2)cc1
growth inhibition [%]: -19.2
--
compound: S=C1NC(/C=C/c2ccccc2)Nc2ccccc21 (stereo unspecified)
growth inhibition [%]: 73
--
compound: CC1=NN(C(=O)CC(=O)N(C(=O)c2ccccc2Cl)c2ccc(C)cc2)C(=O)C1N=Nc1ccc([N+](=O)[O-])cc1 (stereo unspecified)
growth inhibition [%]: 47.5
--
compound: Cc1ccc(NC(=O)/C(Cc2nc3ccc([N+](=O)[O-])cc3[nH]c2=O)=N\NC(=O)C[n+]2ccccc2)c(C)c1
growth inhibition [%]: -4.3
--
compound: Cc1nc(Nc2ccccc2)c(C#N)c(=O)[nH]1
growth inhibition [%]: -15.6
--
compound: COc1ccc(Nc2nc3ccccc3nc2C(=O)O)cc1OC
growth inhibition [%]: -9.6
--
compound: O=C(Nc1cc(S(=O)(=O)O)cc2cc(S(=O)(=O)O)c(N=Nc3cc(Nc4nc(Cl)nc(Nc5ccc(S(=O)(=O)O)cc5)n4)ccc3S(=O)(=O)O)c(O)c12)c1ccccc1
growth inhibition [%]: 10.8
--
compound: NC(CCCCNCc1ccccc1O)C(=O)O (stereo unspecified)
growth inhibition [%]: -1.7
--
compound: CN(C)CCNC(=O)c1ccc2nc3c(nc2c1)C(=O)c1ccccc1-3
growth inhibition [%]: 31.3
--
compound: NC(N)=NC(N)=Nc1ccccc1
growth inhibition [%]: -1.8
--
compound: COC(=O)c1cc2c(cc1CC1Cc3cc4c(cc3C1=O)CCC4)CCC2 (stereo unspecified)
growth inhibition [%]: -10.4
--
compound: Nc1cc2c(O)cc(S(=O)(=O)O)cc2cc1S(=O)(=O)O
growth inhibition [%]: 2.35
--
compound: CN(C)C(=O)Sc1ccc([N+](=O)[O-])cc1Cl
growth inhibition [%]: 5.7
--
compound: COc1ccc(/C=C2\C(=O)N(C(=O)c3ccc(NC(C)=O)cc3)N=C2C)cc1
growth inhibition [%]: -39.2
--
compound: CCCCCCCCCCCCCCCCOc1ccc(S(=O)(=O)N/N=c2/sc(-c3ccccc3Cl)nn2C)cc1C(=O)O
growth inhibition [%]: 13.3
--
compound: NC(N)=NC(N)=Nc1ccccc1Br
growth inhibition [%]: -4.4
